# Test system: CAKI-1 renal
# Protocol summary: NCI-60 one-dose screen, 48 h (100 = growth as untreated, 0 = no growth, -100 = all killed)
# Condition info: 10 µM unless noted
This is part of a sample that, as a whole, favours compounds with a hit. Of some 83,000 tested, about 20% had one in any assay.
Classification field: 1 (yes) = growth at or over 70%; 0 (no) = growth under 70%.

{"Smiles code": "CC(=O)c1nc2ccccc2n1CC(=O)c1cccc(Cl)c1", "Class assignment": "0 (no)"}
{"Smiles code": "Cc1ncc(C(=O)Nc2ccc(CN3CCN(C)CC3)c(C(F)(F)F)c2)cc1C#Cc1cnc2cccnn12", "Class assignment": "0 (no)"}
{"Smiles code": "O=C1c2cc3c(cc2-c2c1c1ccc(Cl)cc1c(=O)n2CCCN1CCOCC1)OCO3", "Class assignment": "0 (no)"}
{"Smiles code": "N#CN1CCC[C@H]1C(=O)N1CCc2c(-c3[nH]nc4ncccc34)cccc21", "Class assignment": "0 (no)"}
{"Smiles code": "COc1ccc(-c2n[nH]nc2-c2csc3ccccc23)cc1OC", "Class assignment": "0 (no)"}
{"Smiles code": "C=CC(=O)Nc1cccc(-c2nc(SC)nc(NCc3ccccc3)c2C#N)c1", "Class assignment": "0 (no)"}
{"Smiles code": "OCCNc1nccc(N2CCN(c3ccnc4cc(Cl)ccc34)CC2)n1", "Class assignment": "1 (yes)"}
{"Smiles code": "COc1ccc(C(=O)c2sc3nc4c(c(-c5cccnc5)c3c2N)CCCC4)cc1OC", "Class assignment": "1 (yes)"}

# next molecule below
Is reported growth greater than or equal to 70% here: COc1cc(-c2nc(C(=O)NCC(=O)NO)nn2-c2ccc(Cl)cc2)cc(OC)c1OC 1 (yes)

====

# System: SK-OV-3 ovarian
# Protocol summary: NCI-60 one-dose screen, 48 h
# Condition info: 10 µM unless noted
About 83,000 compounds went through this panel and 20% of them were active in at least one assay; those are over-represented in the sample as a whole. The source made the active and inactive calls. How the source made its calls: active means growth percent below 10; inactive means the rest.
Form entry, call: pick from active, inactive

For orientation, consider the following solved cases.
{"Compound": "CCOC(=O)c1sc(Nc2ccc(Cl)cc2)nc1C", "Class assignment": "inactive"}
{"Compound": "CC(C)(C)N1CCC1CN (stereo not given)", "Class assignment": "inactive"}
{"Compound": "N=C(N)c1ccc(-c2ccc(-c3ccc4ccccc4c3)s2)s1", "Class assignment": "inactive"}

Which outcome was assigned to C=C1C(=O)O[C@H]2[C@H]1CC/C(COC(=O)c1cc3cc(OC)ccc3[nH]1)=C\CC[C@@]1(C)O[C@@H]21 in this test? inactive

Consider next the compound O=C(O)COc1ccc(Cl)cc1C1CCCCC1 in the same way. inactive

Also COc1ccc(CN2c3ccccc3Oc3ccccc32)cc1F ? inactive

Item: CC1C(/C=N/Nc2ccccc2)C(C#N)(C#N)C1(C#N)C#N (stereo not given) inactive

Do the same for CCNc1ncnc2c1cnn2C1CCCO1 (stereo not given) please inactive

Item: COc1ccc2c(c1)CC/C(=C\c1cncc(Br)c1)C2=O inactive

====

# System: CAKI-1 renal
# Protocol summary: NCI-60 one-dose screen, 48 h
# Condition info: 10 µM unless noted
The panel holds about 83,000 compounds, 20% with a hit somewhere; the sample as a whole holds those more often. Activity calls are given as the source filed them. How the source made its calls: active means growth percent below 10; inactive means the rest.
Write down the outcome that applies. Available outcomes: TRUE (active), FALSE (inactive)

Worked examples follow.
{"Molecule": "COc1cc(-c2ccc3c(c2)NC(=O)/C3=C\\c2ccc[nH]2)ccc1O", "Class assignment": "FALSE"}
{"Molecule": "O=c1c2c3c(sc2nc(N/N=C/c2cn(-c4ccccc4)nc2-c2ccc(Cl)cc2)n1Cc1ccccc1)CCCC3", "Class assignment": "FALSE"}
{"Molecule": "CCC#CC[C@H](O)C/C=C1/C(=O)C=C[C@@H]1C/C=C\\CCCC(=O)OC", "Class assignment": "TRUE"}
{"Molecule": "CCOc1cc2c(cc1OCC)C(c1cc(OC)c(O)cc1Cl)NCC2 (centres undefined)", "Class assignment": "FALSE"}
{"Molecule": "COc1ccc(CN2c3ccccc3Sc3ccccc32)cc1O", "Class assignment": "FALSE"}

Which outcome did this test record for the molecule CCOc1ccc(C(C)=O)cc1NC(=O)c1cccc(-c2nnn(CC)n2)c1 ? FALSE

Can you check O=C(O)COc1ccc(Cl)cc1C1CCCCC1 next? FALSE

What would you report for Cc1ccc2c(C(C[N+](=O)[O-])c3ccccc3)c(-c3ccccc3)[nH]c2c1 (centres undefined) ? FALSE

Try this molecule too: COc1cccc(-c2nc3sccn3c2-c2ccnc(NCCNS(=O)(=O)c3ccc(F)cc3)c2)c1 FALSE

Can you check O=C1OCC2=C1C(c1ccncc1)c1cc3c(cc1N2CCO)OCO3 (centres undefined) next? FALSE

Another molecule to look at: Cc1cc(N2CCOCC2)nc(NCc2cc(Nc3ccnc4cc(Cl)ccc34)ccc2F)n1 TRUE

Continue with Oc1ccccc1-c1nnc(CNc2ccc(Cl)cc2)o1 FALSE

Same thing, different molecule: COc1cccc2c1C(=O)c1c(O)c3c(c(O)c1C2=O)C[C@](O)(C(=O)CO)C[C@H]3O[C@@H]1C[C@@H](NC(=O)CCCN(C)C2(c3ccc(F)cc3)CC3CCC2C3)[C@H](O)[C@@H](C)O1 (some centres undefined) FALSE

// next record COc1cc2c(cc1-c1c(C)noc1C)ncc1nc(-c3ccccn3)n([C@H](C)COC(F)F)c12 FALSE

One more molecule: COc1ccc(-c2nnc(SCC(=O)c3ccc(Cl)cc3)o2)cc1 FALSE

Field entry: O=C(CN(C(=O)Cn1c(=O)n2nnnc2c2ccccc21)c1ccccc1C(F)(F)F)Nc1ccc(C(F)(F)F)cc1 FALSE

Then this molecule: Nc1ccn(-c2ccc(Br)cc2)c(=O)n1 FALSE

Another molecule: COC(=O)[C@@H]1CCCN1C(=O)[C@@H]1CCCN1C(=O)[C@H](Cc1ccccc1)NC(=S)Nc1cc(C(F)(F)F)cc(C(F)(F)F)c1 FALSE

Then what about the molecule Cc1ccc(NS(=O)(=O)c2ccc(-c3cnc(C4CC4)o3)cc2)cc1C ? FALSE
